Test: Biodistribution: organ distribution of F-18 signal in mice
Type: in vivo, male NMRI mice
Details: stomach (without content), 240 min post i.v. injection
Protocol: Biodistribution and excretion studies were performed in male NMRI mice (body weight app. 30g; 3 animals per time point). The animals were kept under normal laboratory conditions at a temperature of 22±2° C. and a dark/light rhythm of 12 hours. Food and water were provided ad libitium. […] At 2, 5, 30, 60, 240 min post intravenous injection via the tail vein of ca. 150 kBq in 100 μl of the test compound, urine and feces were quantitatively collected. […]
quantity: Organ distribution of F-18 signal, stomach (% ID/g)
Numbers only; they are read as % ID/g.

Below, 4 molecules whose answers are already recorded.
> print(dat)
                                   molecule  unit.label  recorded.value
1  O=C(NCC(=O)N1CCN(c2ccc(OCc3ccccc3)cc2)CC1)c1cccnc1[18F] [Example 12c]      % ID/g            0.71
2  O=C(NCC(=O)N1CCN(c2ccc(OCc3ccccc3)cc2)CC1)c1cccc(OCC[18F])c1      % ID/g            0.82
3  O=C(NCC(=O)N1CCN(c2ccc(OCc3ccccc3)cc2)CC1)c1ccc([18F])nc1 [Example 10e]      % ID/g            0.50
4  O=C(NCC(=O)N1CCN(c2ccc(OCc3ccccc3)cc2)CC1)c1ccnc([18F])c1 [Example 11c]      % ID/g            0.34

Could you now look at the following molecule, please?
# query: Organ distribution of F-18 signal, stomach of entry O=C(NCC(=O)N1CCN(c2ccc(OCc3ccccc3)cn2)CC1)c1ccnc([18F])c1 [Example 14f]
0.46

###

Test: Biodistribution: organ distribution of F-18 signal in mice
Type: in vivo, male NMRI mice
Conditions: fat, 30 min post i.v. injection
Listing of recorded Organ distribution of F-18 signal, fat by entry.
Numbers only; they are read as % ID/g.

> print(dat)
                                   compound                                quantity  recorded.value
1  O=C(NCC(=O)N1CCN(c2ccc(OCc3ccccc3)cn2)CC1)c1ccnc([18F])c1 [Example 14f]  Organ distribution of F-18 signal, fat            1.02

# query: Organ distribution of F-18 signal, fat of entry O=C(NCC(=O)N1CCN(c2ccc(OCc3ccccc3)cc2)CC1)c1cccnc1[18F] [Example 12c]
1.89

# query: Organ distribution of F-18 signal, fat of entry O=C(NCC(=O)N1CCN(c2ccc(OCc3ccccc3)cc2)CC1)c1cccc(OCC[18F])c1
4.26

# query: Organ distribution of F-18 signal, fat of entry O=C(NCC(=O)N1CCN(c2ccc(OCc3ccccc3)cc2)CC1)c1ccnc([18F])c1 [Example 11c]
1.94

# query: Organ distribution of F-18 signal, fat of entry O=C(NCC(=O)N1CCN(c2ccc(OCc3ccccc3)cc2)CC1)c1ccc([18F])nc1 [Example 10e]
1.95

###

Assay: Biodistribution: organ distribution of F-18 signal in mice
Assay type: in vivo, male NMRI mice
Details: blood, 60 min post i.v. injection
Hi, to clarify the labels: TRUE covers Organ distribution of F-18 signal, blood from 0.6 % ID/g upward, FALSE covers anything below 0.6 % ID/g.

Worked cases, answers included:
> print(dat)
                                   compound  group.label
1  O=C(NCC(=O)N1CCN(c2ccc(OCc3ccccc3)cc2)CC1)c1cccc(OCC[18F])c1         TRUE
2  O=C(NCC(=O)N1CCN(c2ccc(OCc3ccccc3)cc2)CC1)c1ccc([18F])nc1 [Example 10e]        FALSE
3  O=C(NCC(=O)N1CCN(c2ccc(OCc3ccccc3)cn2)CC1)c1ccnc([18F])c1 [Example 14f]        FALSE
4  O=C(NCC(=O)N1CCN(c2ccc(OCc3ccccc3)cc2)CC1)c1cccnc1[18F] [Example 12c]         TRUE

Now let's try a different one.
Is it the case that O=C(NCC(=O)N1CCN(c2ccc(OCc3ccccc3)cc2)CC1)c1ccnc([18F])c1 [Example 11c] has Organ distribution of F-18 signal, blood reaching or exceeding 0.6 % ID/g?
FALSE

###

Assay: Biodistribution: organ distribution of F-18 signal in mice
Type: in vivo, male NMRI mice
Conditions: intestine (with content), 240 min post i.v. injection
Listing of recorded Organ distribution of F-18 signal, intestine by entry.
Numbers only; they are read as % ID/g.

# query: Organ distribution of F-18 signal, intestine of entry O=C(NCC(=O)N1CCN(c2ccc(OCc3ccccc3)cc2)CC1)c1cccnc1[18F] [Example 12c]
10.54

# query: Organ distribution of F-18 signal, intestine of entry O=C(NCC(=O)N1CCN(c2ccc(OCc3ccccc3)cc2)CC1)c1ccc([18F])nc1 [Example 10e]
6.90

# query: Organ distribution of F-18 signal, intestine of entry O=C(NCC(=O)N1CCN(c2ccc(OCc3ccccc3)cc2)CC1)c1cccc(OCC[18F])c1
8.50

# query: Organ distribution of F-18 signal, intestine of entry O=C(NCC(=O)N1CCN(c2ccc(OCc3ccccc3)cc2)CC1)c1ccnc([18F])c1 [Example 11c]
13.00

# query: Organ distribution of F-18 signal, intestine of entry O=C(NCC(=O)N1CCN(c2ccc(OCc3ccccc3)cn2)CC1)c1ccnc([18F])c1 [Example 14f]
13.53

###

Assay: Biodistribution: organ distribution of F-18 signal in mice
Assay type: in vivo, male NMRI mice
Details: brain, 60 min post i.v. injection
quantity: Organ distribution of F-18 signal, brain (% ID/g)
Numbers only; they are read as % ID/g.

Below, 4 molecules whose answers are already recorded.
> print(dat)
                                   molecule  recorded.value
1  O=C(NCC(=O)N1CCN(c2ccc(OCc3ccccc3)cc2)CC1)c1cccc(OCC[18F])c1            0.93
2  O=C(NCC(=O)N1CCN(c2ccc(OCc3ccccc3)cn2)CC1)c1ccnc([18F])c1 [Example 14f]            0.13
3  O=C(NCC(=O)N1CCN(c2ccc(OCc3ccccc3)cc2)CC1)c1ccnc([18F])c1 [Example 11c]            0.34
4  O=C(NCC(=O)N1CCN(c2ccc(OCc3ccccc3)cc2)CC1)c1ccc([18F])nc1 [Example 10e]            0.44

# query: Organ distribution of F-18 signal, brain of entry O=C(NCC(=O)N1CCN(c2ccc(OCc3ccccc3)cc2)CC1)c1cccnc1[18F] [Example 12c]
0.60

###

Assay: Biodistribution: organ distribution of F-18 signal in mice
Format: in vivo, male NMRI mice
Conditions: testicle, 5 min post i.v. injection
quantity: Organ distribution of F-18 signal, testicle (% ID/g)
Numbers only; they are read as % ID/g.

> print(dat)
                                   molecule  recorded.value
1  O=C(NCC(=O)N1CCN(c2ccc(OCc3ccccc3)cc2)CC1)c1cccnc1[18F] [Example 12c]            1.79
2  O=C(NCC(=O)N1CCN(c2ccc(OCc3ccccc3)cc2)CC1)c1ccnc([18F])c1 [Example 11c]            1.70
3  O=C(NCC(=O)N1CCN(c2ccc(OCc3ccccc3)cc2)CC1)c1ccc([18F])nc1 [Example 10e]            1.81

# query: Organ distribution of F-18 signal, testicle of entry O=C(NCC(=O)N1CCN(c2ccc(OCc3ccccc3)cc2)CC1)c1cccc(OCC[18F])c1
1.58

# query: Organ distribution of F-18 signal, testicle of entry O=C(NCC(=O)N1CCN(c2ccc(OCc3ccccc3)cn2)CC1)c1ccnc([18F])c1 [Example 14f]
1.73

###

Assay: Biodistribution: organ distribution of F-18 signal in mice
Type: in vivo, male NMRI mice
Details: lung, 240 min post i.v. injection
Protocol: Biodistribution and excretion studies were performed in male NMRI mice (body weight app. 30g; 3 animals per time point). The animals were kept under normal laboratory conditions at a temperature of 22±2° C. and a dark/light rhythm of 12 hours. Food and water were provided ad libitium. […] At 2, 5, 30, 60, 240 min post intravenous injection via the tail vein of ca. 150 kBq in 100 μl of the test compound, urine and feces were quantitatively collected. […]
Listing of recorded Organ distribution of F-18 signal, lung by entry.
Numbers only; they are read as % ID/g.

> print(dat)
                                   molecule  recorded.value
1  O=C(NCC(=O)N1CCN(c2ccc(OCc3ccccc3)cc2)CC1)c1cccc(OCC[18F])c1            0.59
2  O=C(NCC(=O)N1CCN(c2ccc(OCc3ccccc3)cn2)CC1)c1ccnc([18F])c1 [Example 14f]            0.12
3  O=C(NCC(=O)N1CCN(c2ccc(OCc3ccccc3)cc2)CC1)c1ccnc([18F])c1 [Example 11c]            0.31

# query: Organ distribution of F-18 signal, lung of entry O=C(NCC(=O)N1CCN(c2ccc(OCc3ccccc3)cc2)CC1)c1cccnc1[18F] [Example 12c]
0.15

# query: Organ distribution of F-18 signal, lung of entry O=C(NCC(=O)N1CCN(c2ccc(OCc3ccccc3)cc2)CC1)c1ccc([18F])nc1 [Example 10e]
0.10
